- method-description: DTX concentration in plasma and tissues of TxR tumor bearing mice (LC/MS/MS)
- Format: in vivo, ICR-NOD/SCID mice
- measurement-setup: ICR-NOD/SCID, mouse, lung, iv, 20 mg/kg

>  <compound>
CC(=O)O[C@@]12CO[C@@H]1C[C@H](O)[C@@]1(C)C(=O)[C@H](O)C3=C(C)[C@@H](OC(=O)[C@H](O)[C@@H](NC(=O)OC(C)(C)C)c4ccccc4)C[C@@](O)([C@@H](OC(=O)c4ccccc4)[C@H]21)C3(C)C [DTX, Docetaxel]

>  <quantity-unit>
ng/g

>  <concentration at 2 h>
5160

$$$$
